Ref: patent US12077503B2

tested on: Galium (catchweed bedstraw, Galium aparine); assay: Test A postemergence; format: in vivo; conditions: Galium, post-emergence, 240 h, 125 g ai/ha, Postemergence, visual rating about 10 d after treatment; read-out: Galium plant response rating (0 to 100 scale)
Values of pest or weed control at 125 g/ha greater than or equal to 40% map to Condition met; values below map to Condition not met.

{"itemSmiles": "Cc1c(F)cccc1NC(=O)[C@H]1C(=O)NC[C@@H]1c1cccc2c1OC(F)(F)O2", "categoryLabel": "Condition not met"}
{"itemSmiles": "CN1C[C@H](c2cccc(C(C)(F)F)c2)[C@@H](C(=O)Nc2cccc(F)c2F)C1=O", "categoryLabel": "Condition met"}
{"itemSmiles": "Cc1cccc([C@H]2CN(C)C(=O)[C@@H]2C(=O)Nc2cnccc2C)c1", "categoryLabel": "Condition not met"}
{"itemSmiles": "CN1C[C@H](c2ccc(OC(F)F)cc2)[C@@H](C(=O)Nc2ccccc2F)C1=O", "categoryLabel": "Condition met"}
{"itemSmiles": "CC(C)Oc1ccc([C@H]2CN(C)C(=O)[C@@H]2C(=O)Nc2ccccc2F)cc1F", "categoryLabel": "Condition not met"}
{"itemSmiles": "CN1C[C@H](c2ccc3c(c2)CCO3)[C@@H](C(=O)Nc2ccc(F)c(F)c2F)C1=O", "categoryLabel": "Condition met"}
{"itemSmiles": "Cc1ccc([C@H]2CN(C)C(=O)[C@@H]2C(=O)Nc2ccc(F)c(F)c2F)cc1", "categoryLabel": "Condition met"}
{"itemSmiles": "CN1C[C@H](c2cccc(C(C)(F)F)c2)[C@@H](C(=O)Nc2ccccc2S(C)(=O)=O)C1=O", "categoryLabel": "Condition met"}
{"itemSmiles": "COc1c([C@H]2CN(C)C(=O)[C@@H]2C(=O)Nc2cccc(F)c2F)cccc1C(F)(F)F", "categoryLabel": "Condition met"}
{"itemSmiles": "CN1C[C@H](c2cccc(C(F)(F)F)c2)[C@@H](C(=O)Nc2ccc(F)nc2F)C1=O", "categoryLabel": "Condition met"}
{"itemSmiles": "CS(=O)(=O)c1ccccc1NC(=O)[C@H]1C(=O)NC[C@@H]1c1ccc2c(c1)CCO2", "categoryLabel": "Condition not met"}
{"itemSmiles": "O=C1NC[C@H](c2cnc(C(F)(F)F)nc2)[C@H]1C(=O)Nc1cccc(F)c1F", "categoryLabel": "Condition not met"}
{"itemSmiles": "Cc1ccc([C@H]2CN(C)C(=O)[C@@H]2C(=O)Nc2ccccc2)cc1", "categoryLabel": "Condition not met"}
{"itemSmiles": "CN1C[C@H](c2csc3c2CCOC3)[C@@H](C(=O)Nc2ccccc2F)C1=O", "categoryLabel": "Condition not met"}
{"itemSmiles": "CN1C[C@H](c2csc3c2CCC3)[C@@H](C(=O)Nc2cccc(F)c2F)C1=O", "categoryLabel": "Condition not met"}

----------
A collection of compounds and their measured Plant response rating, Blackgrass
tested on: blackgrass (Alopecurus myosuroides); assay: Test A postemergence; assay type: in vivo; conditions: 125 g ai/ha, postemergence; visual rating after approx. 10 d, 0 to 100 scale (0 no effect, 100 complete control)
recordedEndpoint: Plant response rating, Blackgrass

{"compound": "CN1CC(c2cccc(C(F)(F)F)c2)C(C(=O)Nc2cccc(F)c2F)C1=O (stereo not shown) [Compound 636]", "dataValue": 60}
{"compound": "Cc1ccc(C2CNC(=O)C2C(=O)Nc2cccc(F)c2F)cc1C(F)(F)F (stereo not shown) [Compound 642]", "dataValue": 20}
{"compound": "CC(C)Oc1cccc(C2CN(C)C(=O)C2C(=O)Nc2ccccc2C(F)(F)F)c1 (stereo not shown) [Compound 652]", "dataValue": 60}
{"compound": "CC(C)Oc1cccc(C2CN(C)C(=O)C2C(=O)Nc2ccccc2F)c1 (stereo not shown) [Compound 650]", "dataValue": 50}

----------
tested on: corn (Zea mays); test: Test G Post-Emergence Protocol; format: in vivo; conditions: Zea mays, post-emergence, 312 h, 62.5 g ai/ha, evaluated after 13 days, read-out: Corn damage rating (100=total damage to plant; 0=no damage to plant)
A collection of compounds and their measured plant injury at 62.5 g/ha
recordedEndpoint: plant injury at 62.5 g/ha (%)

{"compound": "CN1C[C@H](c2ccc(C(F)(F)F)cc2)[C@@H](C(=O)Nc2cccc(C(F)F)c2)C1=O (racemic)", "recordedEndpoint": "plant injury at 62.5 g/ha", "unitName": "%", "dataValue": 0}
{"compound": "CN1C[C@@H](c2ccnc(C(F)(F)F)c2)[C@H](C(=O)Nc2cccc(F)c2F)C1=O (racemic)", "recordedEndpoint": "plant injury at 62.5 g/ha", "unitName": "%", "dataValue": 60}
{"compound": "Cc1n[nH]c(NC(=O)[C@@H]2C(=O)N(C)C[C@H]2c2ccc(C(F)(F)F)cc2)c1C#N (racemic)", "recordedEndpoint": "plant injury at 62.5 g/ha", "unitName": "%", "dataValue": 0}
{"compound": "CN1C[C@H](c2ccc(C(F)(F)F)cc2)[C@@H](C(=O)Nc2ccc(F)cc2[N+](=O)[O-])C1=O (racemic)", "recordedEndpoint": "plant injury at 62.5 g/ha", "unitName": "%", "dataValue": 10}
{"compound": "Cc1nc(F)ccc1[C@@H]1CN(C)C(=O)[C@H]1C(=O)Nc1cccc(F)c1F (racemic)", "recordedEndpoint": "plant injury at 62.5 g/ha", "unitName": "%", "dataValue": 0}
{"compound": "COc1cc([C@H]2CN(C)C(=O)[C@@H]2C(=O)Nc2ccccc2F)ccc1Cl (racemic)", "recordedEndpoint": "plant injury at 62.5 g/ha", "unitName": "%", "dataValue": 10}
{"compound": "CN1C[C@@H](c2ccc(C(F)(F)F)cc2)[C@H](C(=O)Nc2cc(F)c(F)c(F)c2F)C1=O (racemic)", "recordedEndpoint": "plant injury at 62.5 g/ha", "unitName": "%", "dataValue": 0}

----------
System: redroot pigweed (Amaranthus retroflexus)
Test: Test G Post-Emergence Protocol
Format: in vivo
Details: Amaranthus retroflexus, post-emergence, 312 h, 15.625 g ai/ha, evaluated after 13 days (100=total damage to plant; 0=no damage to plant), read-out: Pigweed, Redroot damage rating
Description: Seeds of corn (Zea mays), giant foxtail (Setaria faberi), barnyardgrass (Echinochloa crus-galli), ivy-leaved morning glory (Ipomoea hederacea), redroot pigweed (Amaranthus retroflexus) and velvetleaf (Abutilon theophrasti) were sown in standard soil in pots. […]

{"molecule": "Cc1onc(NC(=O)[C@@H]2C(=O)N(C)C[C@H]2c2ccc(C(F)(F)F)cc2)c1Cl (racemic)", "experimentalTarget": "redroot pigweed (Amaranthus retroflexus)", "pest or weed control at 15.625 g/ha, %": 0}
{"molecule": "CN1C[C@@H](c2ccc(C(F)(F)F)cc2)[C@H](C(=O)Nc2ccnc(C(F)(F)F)c2)C1=O (racemic)", "experimentalTarget": "redroot pigweed (Amaranthus retroflexus)", "pest or weed control at 15.625 g/ha, %": 0}
{"molecule": "CN1C[C@H](c2ccc(C(F)(F)F)cc2)[C@@H](C(=O)Nc2cccnc2S(C)(=O)=O)C1=O (racemic)", "experimentalTarget": "redroot pigweed (Amaranthus retroflexus)", "pest or weed control at 15.625 g/ha, %": 0}
{"molecule": "COC(=O)c1cc([C@H]2CN(C)C(=O)[C@@H]2C(=O)Nc2ccccc2F)ccc1Cl (racemic)", "experimentalTarget": "redroot pigweed (Amaranthus retroflexus)", "pest or weed control at 15.625 g/ha, %": 0}
{"molecule": "COc1cccc(NC(=O)[C@@H]2C(=O)N(C)C[C@H]2c2ccc(C(F)(F)F)cc2)n1 (racemic)", "experimentalTarget": "redroot pigweed (Amaranthus retroflexus)", "pest or weed control at 15.625 g/ha, %": 0}
{"molecule": "Cc1cc([C@H]2CN(C)C(=O)[C@@H]2C(=O)Nc2cccc(F)c2F)cnn1 (racemic)", "experimentalTarget": "redroot pigweed (Amaranthus retroflexus)", "pest or weed control at 15.625 g/ha, %": 0}
{"molecule": "Cc1c(F)cccc1NC(=O)[C@@H]1C(=O)N(C)C[C@H]1c1cccc(C(C)(C)O)c1 (racemic)", "experimentalTarget": "redroot pigweed (Amaranthus retroflexus)", "pest or weed control at 15.625 g/ha, %": 0}
{"molecule": "CN1C[C@H](c2ccc(F)c(F)c2)[C@@H](C(=O)Nc2cnccc2C(F)(F)F)C1=O (racemic)", "experimentalTarget": "redroot pigweed (Amaranthus retroflexus)", "pest or weed control at 15.625 g/ha, %": 0}
{"molecule": "COc1cc(Cl)cc(C2CN(C)C(=O)C2C(=O)Nc2cccc(F)c2F)c1 (stereo not drawn)", "experimentalTarget": "redroot pigweed (Amaranthus retroflexus)", "pest or weed control at 15.625 g/ha, %": 0}

----------
A collection of compounds and their measured Plant response rating, Corn
system: corn (Zea mays); experiment: Test A postemergence; format: in vivo; conditions: 500 g ai/ha, postemergence; 0 to 100 scale, 0 no effect, 100 complete control

{"compound": "CN1CC(c2ccccc2)C(C(=S)Nc2ccccc2F)C1=O (centres unmarked) [Compound 471]", "Plant response rating, Corn": 0}
{"compound": "O=C1NCC(c2cccc(OCC(F)F)c2)C1C(=O)Nc1ccc(F)c(F)c1F (centres unmarked) [Compound 407]", "Plant response rating, Corn": 40}
{"compound": "O=C1NCC(c2cccc(OC(F)(F)C(F)F)c2)C1C(=O)Nc1ccccc1C(F)F (centres unmarked) [Compound 391]", "Plant response rating, Corn": 70}
{"compound": "CN1CC(c2ccc(C(F)(F)F)c(F)c2)C(C(=O)Nc2ccccc2S(C)(=O)=O)C1=O (centres unmarked) [Compound 397]", "Plant response rating, Corn": 70}
{"compound": "CN1CC(c2ccc(Cl)cc2)C(C(=O)Nc2ccccc2F)C1=O (centres unmarked) [Compound 433]", "Plant response rating, Corn": 30}
{"compound": "Cc1ccc(C2CNC(=O)C2C(=O)Nc2cccc(F)c2F)cc1F (racemic) [Compound 369]", "Plant response rating, Corn": 50}
{"compound": "Cc1cc(NC(=O)C2C(=O)NCC2c2cccc(OC(F)F)c2)ccc1F (centres unmarked) [Compound 424]", "Plant response rating, Corn": 0}
{"compound": "COc1c(F)ccc(NC(=O)C2C(=O)NCC2c2ccc(F)c(F)c2)c1F (centres unmarked) [Compound 419]", "Plant response rating, Corn": 20}
{"compound": "CN1CC(c2ccc(C(F)(F)F)cc2)C(C(=S)Nc2ccccc2F)C1=O (centres unmarked) [Compound 450]", "Plant response rating, Corn": 60}
{"compound": "CCCOc1cccc(C2CNC(=O)C2C(=O)Nc2cccc(F)c2F)c1 (racemic) [Compound 380]", "Plant response rating, Corn": 0}
{"compound": "COC(=O)c1ccccc1NC(=O)C1C(=O)NCC1c1ccc(F)c(F)c1 (centres unmarked) [Compound 417]", "Plant response rating, Corn": 0}
